- tested_target: cynomolgus CD3εδ Fc heterodimer (Cy CD3ε Fc / CD3δ Fc-HIS) (cynomolgus) (UniProt Q95LI8)
- Sequence (chain, as listed by the source mutant, chain 1 of 2): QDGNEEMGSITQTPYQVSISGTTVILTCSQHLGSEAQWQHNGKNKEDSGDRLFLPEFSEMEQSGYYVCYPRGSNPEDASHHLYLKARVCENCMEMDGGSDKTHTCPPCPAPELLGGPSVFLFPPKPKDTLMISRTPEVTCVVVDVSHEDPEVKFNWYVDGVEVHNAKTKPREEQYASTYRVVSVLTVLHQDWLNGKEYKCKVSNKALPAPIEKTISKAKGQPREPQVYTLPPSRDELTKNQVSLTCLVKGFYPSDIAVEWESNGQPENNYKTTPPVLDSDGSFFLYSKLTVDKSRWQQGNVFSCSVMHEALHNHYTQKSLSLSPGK
- Sequence (Q95LI8 22-100, stated change not applied, chain 2 of 2): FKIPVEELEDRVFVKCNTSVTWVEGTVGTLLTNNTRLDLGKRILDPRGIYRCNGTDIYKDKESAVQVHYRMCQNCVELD
- assay_overview: BLI (ForteBio), pH 6.0
quantity_name: kon (M⁻¹ s⁻¹)
Enter your answer as a number in M⁻¹ s⁻¹; do not include the unit.

Worked set:
binder	reading_unit	kon
SAD10320_P03_F09 (antibody, V domains shown) VH: QVQLVQSGAEVKKPGASVKVSCKASGFNIKDYYMHWVRQAPGQRLEWMGWIDLENANTIYDAKFQGRVTITRDTSASTAYMELSSLRSEDTAVYYCARDAYGHDFYDVWGQGTLVTVSS VL: DIVMTQSPDSLAVSLGERATINCKSSQSLLNARTGKNYLAWYQQKPGQPPKLLIYWASTRESGVPDRFSGSGSGTDFTLTISSLQAEDVAVYYCKQSYHRRTFGGGTKVEIK	M⁻¹ s⁻¹	195000
SAD10320_P02_E05 (antibody, V domains shown) VH: QVQLVQSGAEVKKPGASVKVSCKASGFNIKDYYMHWVRQAPGQRLEWMGWIDLENANTIYDAKFQGRVTITRDTSASTAYMELSSLRSEDTAVYYCARDMHGRYFYDVWGQGTLVTVSS VL: DIVMTQSPDSLAVSLGERATINCKSSQSLLNARTGKNYLAWYQQKPGQPPKLLIYWASTRESGVPDRFSGSGSGTDFTLTISSLQAEDVAVYYCKQSEHRRTFGGGTKVEIK	M⁻¹ s⁻¹	219000
SAD10320_P02_A06 (antibody, V domains shown) VH: QVQLVQSGAEVKKPGASVKVSCKASGFNIKDYYMHWVRQAPGQRLPWMGWIDLENANTIYDAKFQGRVTITRDTSASTAYMELSSLRSEDTAVYYCARDAHERYFYDVWGQGTLVTVSS VL: DIVMTQSPDSLAVSLGERATINCKSSQSLLNARTGKNYLAWYQQKPGQPPKLLIYWASTRESGVPDRFSGSGSGTDFTLTISSLQAEDVAVYYCKQSHLRRTFGGGTKVEIK	M⁻¹ s⁻¹	228000
SAD10320_P03_C08 (antibody, V domains shown) VH: QVQLVQSGAEVKKPGASVKVSCEASGFNIKDYYMHWVRQAPGQTLAWMGWIDLENANTIYDAKFQGRVTITRDTSASTAYMELSSLRSEDTAVYYCARDAYGHVFYDVWGQGTLVTVSS VL: DIVMTQSPDSLAVSLGERATINCKSSQSLLNARTGKNYLAWYQQKPGQPPKLLIYWASTRESGVPDRFSGSGSGTDFTLTISSLQAEDVAVYYCKQSYLHRTFGGGTKVEIK	M⁻¹ s⁻¹	46900

// query Consider the binder SAD10320_P03_H08 (antibody, V domains shown) VH: QVQLVQSGAEVKKPGASVKVSCKASGFNIKDYYMHWVRQAPGQRLEWMGWIDLENANTIYDAKFQGRVTITRDTSASTAYMELSSLRSEDTAVYYCARDAYGHVFYDVWGQGTLVTVSS VL: DIVMTQSPDSLAVSLGERATINCKSSQSLLNASTAKNYLAWYQQKPGQPPKLLIYWASTRESGVPDRFSGSGSGTDFTLTISSLQAEDVAVYYCKQSYRHRTFGGGTKVEIK and give its measured kon.
// result 82700
